Attribution: patent US9359371B2

- test-protocol: Pharmacokinetics (PK) in SD rats
- Format: in vivo
- condition-details: SD, plasma, po; rat, intragastric administration, 5 mg/kg
Cmax: recorded values
observable: Cmax (ng/mL)

1) COc1ccc(CNc2nc(N3CC4CC4C3)ncc2C(=O)N[C@H]2CC[C@H](O)CC2)cc1F (stereo partly shown) | 415
2) COc1ccc(CNc2nc(N3CC4CC4C3)ncc2C(=O)N[C@H]2CC[C@H](O)CC2)cc1C(F)(F)F (stereo partly shown) | 156
3) CCOc1ccc(CNc2nc(N3CC4CC4C3)ncc2C(=O)N[C@H]2CC[C@H](O)CC2)cc1F (stereo partly shown) | 505
4) CCOc1ccc(CNc2nc(N3CC4CC4C3)ncc2C(=O)N[C@H]2CC[C@H](O)CC2)cc1Cl (stereo partly shown) | 392
5) COc1ccc(CNc2nc(N3CC4CC4C3)ncc2C(=O)N[C@H]2CC[C@H](O)CC2)cc1C (stereo partly shown) | 377
6) CCOc1ccc(CNc2nc(N3CC4CC4C3)ncc2C(=O)N[C@H]2CC[C@H](O)CC2)cc1C (stereo partly shown) | 402
7) CCOc1ccc(CNc2nc(N3CC4CC4C3)ncc2C(=O)N[C@H]2CC[C@H](O)CC2)cc1C(F)(F)F (stereo partly shown) | 200

###

The following compounds have recorded IC50 on PDE-5A enzyme (Homo sapiens (Human), UniProt O76074).
observable: IC50 (nM)

1. COc1ccc(CNc2nc(N3CCC4(CC4)C3)ncc2C(=O)NCCN2CCN(C)CC2)cc1Cl | 14.9
2. COc1ccc(CNc2nc(N3CC4CC4C3)ncc2C(=O)N[C@H]2CCCCNC2=O)cc1Cl (some centres unmarked) | 13.2
3. COc1ccc(CNc2nc(N3CCC4(CC3)CC4)ncc2C(=O)N[C@H]2CC[C@H](O)CC2)cc1Cl | 52.4
4. COc1ccc(CNc2nc(N3CC4CC4C3)ncc2C(=O)NCc2ccc(F)cc2)cc1Cl (centres unmarked) | 17.4
5. COc1ccc(CNc2nc(N3CC4CC4C3CO)ncc2C(=O)NCc2ccccc2)cc1Cl (centres unmarked) | 4.63
6. COc1ccc(CNc2nc(N3CCC4(CC4)C3)ncc2C(=O)NCCN2CCOCC2)cc1Cl | 21.4
7. COc1ccc(CNc2nc(N3CCC4(CC4)C3)ncc2C(=O)N[C@H]2CC[C@H](O)CC2)cc1Cl (stereo in doubt) | 15.4
8. COc1ccc(CNc2nc(N3CC4CC4C3CO)ncc2C(=O)NCc2ccccn2)cc1Cl (centres unmarked) | 33.3
9. COc1ccc(CNc2nc(N3CC4CC4C3CO)ncc2C(=O)NCc2ncccn2)cc1Cl (centres unmarked) | 10.4
10. COc1ccc(CNc2nc(N3CC4CC4C3)ncc2C(=O)NCc2ccccc2)cc1Cl (centres unmarked) | 12.9
11. COc1ccc(CNc2nc(N3CC4CC4C3)ncc2C(=O)N[C@H]2CC[C@H](O)CC2)cc1Cl (some centres unmarked) | 4.02
12. COc1ccc(CNc2nc(N3CC4CC4C3)ncc2C(=O)NCc2ncccn2)cc1Cl (centres unmarked) | 6.04
13. COc1ccc(CNc2nc(N3CCC4(CC4)C3)ncc2C(=O)NCc2ncccn2)cc1Cl | 22.9
14. COc1ccc(CNc2nc(N3CCC4(CC4)C3)ncc2C(=O)NCc2ccccn2)cc1Cl | 11.9
